# AC50 per entry
# System: INS-1E rat beta cells, no cytokines, CellTiter-Glo ATP, 48 h
# ASSAY PROCEDURE: cytokine-free beta-cell viability effect – INS-1E rat cells, ATP luminescence, cherry pick, counter-screen for beta-cell apoptosis protection project, dose response (AID 463229)

>>> reading("O=C(COc1ccc2ccccc2c1)N1CCN(Cc2c[nH]c3ccccc23)CC1")
"2.8 µM"
>>> reading("C=C1C(=O)O[C@@H]2C[C@@H](C)[C@@H]3C=CC(=O)[C@@]3(C)[C@@H](OC(=O)CC(=O)O[C@H]3[C@@H]4C(=C)C(=O)O[C@@H]4C[C@@H](C)[C@@H]4C=CC(=O)[C@]43C)[C@H]12")
"0.386 µM"
>>> reading("CCc1ccc(C2=NNC(=Nc3cccc(S(=O)(=O)N(C)C)c3)SC2)cc1")
"3.66 µM"
>>> reading("OC(CNCCC1C=Nc2ccccc21)Cn1c2ccc(Cl)cc2c2cc(Cl)ccc21 (configuration not stated)")
"7.93 µM"
>>> reading("C/C(=N\\NC(=O)C(c1ccccc1)c1ccccc1)c1ccccn1")
"8.03 µM"
>>> reading("Cc1cc(C)nc(N/N=C/c2cc(Br)ccc2O)n1")
"12.6 µM"
>>> reading("Cc1sc2ncnc(N/N=C/c3ccccc3O)c2c1C")
"3.03 µM"
>>> reading("N/C(=N\\NC(=O)c1sccc1OCc1ccc(Cl)cc1Cl)c1ccccn1")
"11.8 µM"
>>> reading("COCCNC(=O)CSC1=N/C(=C/c2ccc(Cl)c(Cl)c2)C(=O)N1c1ccccc1F")
"8.25 µM"
>>> reading("CCN(CC)c1ccc(/C=N/Nc2nc(C)cc(C)n2)c(O)c1")
"15.8 µM"

Test system INS-1E rat beta cells, no cytokines, CellTiter-Glo ATP, 48 h; read-out AC50; what value for `O=C(Nc1cccc([N+](=O)[O-])c1)c1cc2ccccc2cc1O` ?
4.38 µM

Test system INS-1E rat beta cells, no cytokines, CellTiter-Glo ATP, 48 h; read-out AC50; what value for `O=[N+]([O-])c1ccc(NC(=S)NCCc2ccc(F)cc2)cc1` ?
7.46 µM

Test system INS-1E rat beta cells, no cytokines, CellTiter-Glo ATP, 48 h; read-out AC50; what value for `Cc1ccc(S(=O)(=O)/N=C2\C=C(Nc3cccc(C(=O)O)c3)C(=O)c3ccccc32)c(C)c1` ?
7.81 µM

Test system INS-1E rat beta cells, no cytokines, CellTiter-Glo ATP, 48 h; read-out AC50; what value for `c1ccc2c(c1)ncn2CCCOc1ccc2c(c1)CCC2` ?
7.74 µM

Test system INS-1E rat beta cells, no cytokines, CellTiter-Glo ATP, 48 h; read-out AC50; what value for `CC(C)(C)OC(=O)NCCCCCc1cn([C@@H](CO)C(=O)NCCCCCCCCCCC(=O)N2CCN(C(=O)OC(C)(C)C)CC2)nn1` ?
7.05 µM
